Each record here notes measured IC50.
- assayed_target: GSK-3β (Homo sapiens)
- Sequence (P49841 whole entry, species assumed): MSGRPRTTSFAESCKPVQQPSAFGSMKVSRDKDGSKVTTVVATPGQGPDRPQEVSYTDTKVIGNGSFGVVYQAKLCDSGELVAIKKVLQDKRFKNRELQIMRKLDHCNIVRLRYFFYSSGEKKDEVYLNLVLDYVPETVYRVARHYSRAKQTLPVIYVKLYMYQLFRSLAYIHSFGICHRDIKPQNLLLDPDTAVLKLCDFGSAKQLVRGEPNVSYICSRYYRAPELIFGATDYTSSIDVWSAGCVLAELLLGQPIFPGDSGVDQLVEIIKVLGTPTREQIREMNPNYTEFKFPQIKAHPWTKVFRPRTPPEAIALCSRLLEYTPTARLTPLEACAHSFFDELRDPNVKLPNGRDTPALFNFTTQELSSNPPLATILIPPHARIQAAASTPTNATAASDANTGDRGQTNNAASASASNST
- protocol_notes: GSK3 scintillation proximity assay (SPA) kinase assay
- Assay type: biochemical
- assay_setup: 20 nM kinase, 2.5 uM ATP, biotinylated glycogen synthase peptide, 40 minutes at room temperature; -log IC50 in Molar; read-out: GSK-3 pIC50 (converted)
Structures can show the parent of a compound that is named as a salt.

# molecule, IC50
measured = [
    ("C(=N\\Nc1ncnc2c1cnn2-c1ccccc1)/C1CCNCC1 [Example 9, trifluoroacetate]", "100 to 1000 nM"),
    ("CC(C)(C)OC(=O)N1CCC(/C=N/Nc2ncnc3c2cnn3-c2ccccc2)CC1", "100 to 1000 nM"),
    ("CCOc1cc(/C=N/Nc2ncnc3c2cnn3-c2ccccc2)ccc1O", "1000 to 10000 nM"),
    ("CS(=O)(=O)CCNC(=O)c1cccc(/C=N/Nc2ncnc3c2cnn3-c2ccccc2)c1", "100 to 1000 nM"),
    ("CN(C)CCNS(=O)(=O)c1ccc(/C=N/Nc2ncnc3c2cnn3-c2ccccc2)cc1 [Example 22, hydrochloride]", "< 100 nM"),
    ("C(=N\\Nc1ncnc2c1cnn2-c1ccccc1)/c1ccncc1", "100 to 1000 nM"),
    ("CC(=O)Nc1ccc(/C=N/Nc2ncnc3c2cnn3-c2ccccc2)cc1", "100 to 1000 nM"),
    ("COc1cc(/C=N/Nc2ncnc3c2cnn3-c2ccccc2)ccc1O", "< 100 nM"),
    ("COC(=O)c1cccc(/C=N/Nc2ncnc3c2cnn3-c2ccccc2)c1", "100 to 1000 nM"),
    ("OCCOc1cccc(/C=N/Nc2ncnc3c2cnn3-c2ccccc2)c1", "< 100 nM"),
    ("COc1cc(/C=N/Nc2ncnc3c2cnn3-c2ccccc2)cc(O)c1OC", "< 100 nM"),
]
